B1: RHOBTB3 (parent)
chain: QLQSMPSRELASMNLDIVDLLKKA

variants of: B1; experiment: protein stability index of a GFP-peptide fusion (GPS, HEK-293T) (PSI 1-6); higher = more stable; conditions: c terminus: a fixed tail appended;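 further: lentivirally expressed fusions sorted by FACS into six bins by GFP to DsRed ratio, PSI derived from sequencing read proportions per bin multiplied by bin number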
experimental.readout: protein stability index

var: R8I
reported.result: 2.33
//
var: A11V
reported.result: 3.27
//
var: E9A
reported.result: 3.1
//
var: Q3D
reported.result: 3.5
//
var: K22Q
reported.result: 3.93
//
var: Q3S
reported.result: 3.44
//
var: K23S
reported.result: 3.05
//
var: A24E
reported.result: 4.56
//
var: N14T
reported.result: 3.27
//
var: N14F
reported.result: 1.79
//
var: M13Q
reported.result: 3.79
//
var: P6N
reported.result: 3.55
//
var: Q1S
reported.result: 2.75
//
var: A24R
reported.result: 3.11
//
var: M13V
reported.result: 3.7
//
var: M13W
reported.result: 2.88
//
var: D19Q
reported.result: 3.58
//
var: P6W
reported.result: 1.85
//
var: A24L
reported.result: 3.56
//
var: D19M
reported.result: 2.09
//
var: L15D
reported.result: 3.23
//
var: E9S
reported.result: 3.6
//
var: L21K
reported.result: 3.01
//
var: L15T
reported.result: 4.17
//
var: S7L
reported.result: 2.56
//
var: D19Y
reported.result: 2.28
//
var: P6Y
reported.result: 1.88
//
var: M13C
reported.result: 3.74
//
var: A24H
reported.result: 3.77
//
var: V18L
reported.result: 3.37
//
var: A11P
reported.result: 3.27
//
var: N14M
reported.result: 2.63
//
var: K22N
reported.result: 4.23
//
var: A11H
reported.result: 3.21
//
var: S4L
reported.result: 3.23
//
var: M5S
reported.result: 3.76
//
var: S4W
reported.result: 3.6
//
var: L20D
reported.result: 4.68
//
var: A24I
reported.result: 2.98
//
var: I17F
reported.result: 3.63
//
var: L2R
reported.result: 3.47
//
var: D19K
reported.result: 3.08
//
var: P6G
reported.result: 2.91
//
var: L20W
reported.result: 3.51
//
var: D16T
reported.result: 3.05
//
var: K23N
reported.result: 3.97
//
var: P6L
reported.result: 2.2
//
var: I17L
reported.result: 3.34
//
var: L10F
reported.result: 3.41
//
var: P6T
reported.result: 3.46
//
var: I17S
reported.result: 4.37
//
var: A24F
reported.result: 3.41
//
var: L21H
reported.result: 4.33
//
var: P6I
reported.result: 2.03
//
var: S7T
reported.result: 4.35
//
var: D16E
reported.result: 3.63
//
var: K23A
reported.result: 2.92
//
var: Q1V
reported.result: 2.98
//
var: D16Y
reported.result: 2.62
//
var: S4T
reported.result: 3.64
//
var: P6R
reported.result: 3.25
//
var: D19S
reported.result: 3.45
//
var: L15N
reported.result: 3.45
//
var: L20M
reported.result: 3.75
//
var: A11C
reported.result: 3.17
//
var: A11G
reported.result: 3.19
//
var: K23R
reported.result: 3.52
//
var: L10W
reported.result: 3.25
//
var: D16M
reported.result: 2.53
//
var: D16A
reported.result: 2.15
//
var: S7P
reported.result: 4.46
//
var: A11T
reported.result: 3.28
//
var: L20N
reported.result: 3.71
//
var: K23Y
reported.result: 2.71
//
var: D19I
reported.result: 1.86
//
var: L20F
reported.result: 3.42
//
var: L2I
reported.result: 3.16
//
var: R8C
reported.result: 3.85
//
var: A11Y
reported.result: 2.86
//
var: I17M
reported.result: 3.39
//
var: V18D
reported.result: 3.96
//
var: K22V
reported.result: 2.15
//
var: S7A
reported.result: 3.59
//
var: M13H
reported.result: 3.59
//
var: A11I
reported.result: 2.87
//
var: K23V
reported.result: 2.81
//
var: A11D
reported.result: 3.75
//
var: E9G
reported.result: 2.9
//
var: S7Y
reported.result: 3
//
var: Q3N
reported.result: 2.56
//
var: E9Y
reported.result: 3.14
